Experiment: Oligomeric status by native PAGE
Format: physicochemical
Conditions: 15 μg protein, 10% native gel (legend: 12%), Coomassie blue
measure-name: migration on native PAGE / oligomeric state

- molecule: "F117AN173V (protein, left off: His6, end not stated, cleaved) MDKNELVQKAKLAEQAERYDDMAACMKSVTEQGAELSNEERNLLSVAYKNVVGARRSSWRVVSSIEQKTEGAEKKQQMAREYREKIETELRDICNDVLSLLEKFLIPNASQAESKVAYLKMKGDYYRYLAEVAAGDDKKGIVDQSQQAYQEAFEISKKEMQPTHPIRLGLALVFSVFYYEILNSPEKACSLAKTAFDEAIAELDTLSEESYKDSTLIMQLLRDNLTLWTSDTQGDEAEAGEGGEN"
  result: "migrated as dimers"
- molecule: "E180A: 14‐3‐3ζ amphipathic pocket mutant (protein, left off: His6, end not stated, cleaved) MDKNELVQKAKLAEQAERYDDMAACMKSVTEQGAELSNEERNLLSVAYKNVVGARRSSWRVVSSIEQKTEGAEKKQQMAREYREKIETELRDICNDVLSLLEKFLIPNASQAESKVFYLKMKGDYYRYLAEVAAGDDKKGIVDQSQQAYQEAFEISKKEMQPTHPIRLGLALNFSVFYYAILNSPEKACSLAKTAFDEAIAELDTLSEESYKDSTLIMQLLRDNLTLWTSDTQGDEAEAGEGGEN"
  result: "migrated as dimers"

Ref: paper PMC12429009
